system: 616215-338-R-J1-PDC spheroids with HUVEC/MSC, viability; test: Anticancer human tumor 616215-338-R-J1-PDC patient-derived colon adenocarcinoma cell line growth inhibition [PI3K]; details: second compound 0.0316 µM; first compound 3.16 µM; active compounds read low;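 note: spheroids exposed to agents for seven days before the viability read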
Property measured: viability, T/C

Value of measured viability, T/C for the entry C=CC(=O)N1CCN(c2nc(=O)n(-c3c(C)ccnc3C(C)C)c3nc(-c4c(O)cccc4F)c(F)cc23)C(C)C1 (configuration not stated) + CC(Nc1ccc2c(c1)OCCn1cc(N3C(=O)OCC3C(F)F)nc1-2)C(N)=O : 95.6%

Next compound, viability, T/C to be filled in.
Value of measured viability, T/C for the entry CC(Cn1ccc(-c2ccc(C#N)c(Cl)c2)n1)NC(=O)c1cc(C(C)O)[nH]n1 (configuration not stated) + Cc1nc(NC(=O)N2CCCC2C(N)=O)sc1-c1ccnc(C(C)(C)C(F)(F)F)c1 : 102%

Source listed as PubChem BioAssay AID1963978.
